Settings: in water, 285.65 K
readoutLabel: solubility (mole fraction)
# print the numeric value only

Query :: // solubility (mole fraction) lookup, key: "Brc1cn[nH]c1"
Result :: 0.00501

====

Conditions: in methanol, 285.65 K
readoutLabel: solubility (mole fraction)

Query :: // solubility (mole fraction) lookup, key: "Brc1cn[nH]c1"
Result :: 0.218

====

Conditions: in methanol, 303.15 K
readoutLabel: solubility (mole fraction)
# print the numeric value only

Query :: // solubility (mole fraction) lookup, key: "Brc1cn[nH]c1"
Result :: 0.355

====

Settings: in water, 318.15 K
readoutLabel: solubility (mole fraction)
# print the numeric value only

Query :: // solubility (mole fraction) lookup, key: "Brc1cn[nH]c1"
Result :: 0.00987

====

Conditions: in methanol, 310.65 K
readoutLabel: solubility (mole fraction)
# print the numeric value only

Query :: // solubility (mole fraction) lookup, key: "Brc1cn[nH]c1"
Result :: 0.426

====

Details: in ethanol, 290.65 K
readoutLabel: solubility (mole fraction)
# print the numeric value only

Query :: // solubility (mole fraction) lookup, key: "Brc1cn[nH]c1"
Result :: 0.299

====

Settings: in water, 298.15 K
readoutLabel: solubility (mole fraction)
# print the numeric value only

Query :: // solubility (mole fraction) lookup, key: "Brc1cn[nH]c1"
Result :: 0.0066

====

Details: in methanol, 315.65 K
readoutLabel: solubility (mole fraction)
# print the numeric value only

Query :: // solubility (mole fraction) lookup, key: "Brc1cn[nH]c1"
Result :: 0.479

====

Settings: in water, 305.65 K
readoutLabel: solubility (mole fraction)

Query :: // solubility (mole fraction) lookup, key: "Brc1cn[nH]c1"
Result :: 0.00772

====

Details: in water, 295.65 K
readoutLabel: solubility (mole fraction)
# print the numeric value only

Query :: // solubility (mole fraction) lookup, key: "Brc1cn[nH]c1"
Result :: 0.00623

====

Settings: in water, 283.15 K
readoutLabel: solubility (mole fraction)
# print the numeric value only

Query :: // solubility (mole fraction) lookup, key: "Brc1cn[nH]c1"
Result :: 0.0048

====

Conditions: in ethanol, 315.65 K
readoutLabel: solubility (mole fraction)
# print the numeric value only

Query :: // solubility (mole fraction) lookup, key: "Brc1cn[nH]c1"
Result :: 0.481

====

Conditions: in water, 293.15 K
readoutLabel: solubility (mole fraction)
# print the numeric value only

Query :: // solubility (mole fraction) lookup, key: "Brc1cn[nH]c1"
Result :: 0.00591

====

Settings: in methanol, 313.15 K
readoutLabel: solubility (mole fraction)

Query :: // solubility (mole fraction) lookup, key: "Brc1cn[nH]c1"
Result :: 0.452

====

Details: in water, 308.15 K
readoutLabel: solubility (mole fraction)
# print the numeric value only

Query :: // solubility (mole fraction) lookup, key: "Brc1cn[nH]c1"
Result :: 0.00809

====

Details: in ethanol, 293.15 K
readoutLabel: solubility (mole fraction)
# print the numeric value only

Query :: // solubility (mole fraction) lookup, key: "Brc1cn[nH]c1"
Result :: 0.311

====

Conditions: in methanol, 295.65 K
readoutLabel: solubility (mole fraction)
# print the numeric value only

Query :: // solubility (mole fraction) lookup, key: "Brc1cn[nH]c1"
Result :: 0.292

====

Conditions: in methanol, 305.65 K
readoutLabel: solubility (mole fraction)
# print the numeric value only

Query :: // solubility (mole fraction) lookup, key: "Brc1cn[nH]c1"
Result :: 0.379
